Reported IC50 against Amine oxidase [flavin-containing] B (Rattus norvegicus, UniProt P19643), gathered from multiple publications, appears below.
Biological target: Amine oxidase [flavin-containing] B (Rattus norvegicus, UniProt P19643)
Sequence (P19643 whole entry): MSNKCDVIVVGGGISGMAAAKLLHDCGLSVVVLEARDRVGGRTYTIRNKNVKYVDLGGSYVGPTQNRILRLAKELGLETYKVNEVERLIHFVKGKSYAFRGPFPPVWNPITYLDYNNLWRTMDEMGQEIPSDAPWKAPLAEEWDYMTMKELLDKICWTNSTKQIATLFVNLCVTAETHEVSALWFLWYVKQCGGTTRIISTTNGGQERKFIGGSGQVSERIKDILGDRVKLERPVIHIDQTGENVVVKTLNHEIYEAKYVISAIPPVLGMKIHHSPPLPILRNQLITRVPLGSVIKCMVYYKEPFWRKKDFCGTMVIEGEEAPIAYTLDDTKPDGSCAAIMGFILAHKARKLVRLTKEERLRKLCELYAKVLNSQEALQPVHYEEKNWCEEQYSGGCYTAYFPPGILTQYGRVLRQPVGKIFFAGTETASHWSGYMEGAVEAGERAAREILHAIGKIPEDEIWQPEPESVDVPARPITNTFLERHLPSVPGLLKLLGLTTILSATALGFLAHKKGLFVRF
The reply should be a number in µM, with the unit left off.

Input line: Consider the molecule shown here: Cc1ccc(NC(=S)N2N=C(c3ccccc3O)CC2c2ccccc2O)cc1 (stereo unspecified) What is its recorded IC50?
Output line: 37.7

Input line: Consider the molecule shown here: Oc1ccc(C2CC(c3ccccc3)=NN2C(=S)Nc2ccccc2)cc1 (stereo unspecified) What is its recorded IC50?
Output line: 48.6

Input line: Consider the molecule shown here: `NC(=O)CNCc1ccc(OCc2ccc([N+](=O)[O-])cc2)cc1` What is its recorded IC50?
Output line: 9.1

Input line: Consider the molecule shown here: `CN(C)Cc1cc(=O)oc2cc(OCc3cccc(Cl)c3)ccc12` What is its recorded IC50?
Output line: 1.12

Input line: Consider the molecule shown here: `CCCCOc1ccc(-c2cc3c(nn2)-c2ccccc2C3=O)cc1` What is its recorded IC50?
Output line: 10

Input line: Consider the molecule shown here: `NC(=O)Cc1cc(=O)oc2cc(OCc3ccccc3)ccc12` What is its recorded IC50?
Output line: 0.2

Input line: Consider the molecule shown here: `O=C(CCCc1ccccc1)Nc1nc2cc(Cl)ccc2c(=O)s1` What is its recorded IC50?
Output line: 1.22

Input line: Consider the molecule shown here: COc1ccc(C2=NN(c3nc4ccccc4c(=O)n3C)C(c3cccs3)C2)cc1 (stereo unspecified) What is its recorded IC50?
Output line: 15.2

----------
Reported IC50 against Amine oxidase [flavin-containing] B (Rattus norvegicus, UniProt P19643), gathered from multiple publications, appears below.
The reply should be a number in µM, with the unit left off.

Compound | Assayed System | IC50 / µM
Oc1ccccc1C1CC(c2ccccc2)=NN1C(=S)Nc1ccccc1 (stereo not given) | Amine oxidase [flavin-containing] B (Rattus norvegicus, UniProt P19643) | 35.5
CNCc1cc(=O)oc2cc(OCc3ccc4c(c3)OCO4)ccc12 | Amine oxidase [flavin-containing] B (Rattus norvegicus, UniProt P19643) | 0.02
CNCc1cc(=O)oc2cc(OCc3ccccc3)ccc12 | Amine oxidase [flavin-containing] B (Rattus norvegicus, UniProt P19643) | 0.028

Input line: Query IC50 on Amine oxidase [flavin-containing] B (Rattus norvegicus, UniProt P19643) for `O=C1OCc2ccc(OCc3ccccc3)cc21`
Output line: 0.23

Input line: Query IC50 on Amine oxidase [flavin-containing] B (Rattus norvegicus, UniProt P19643) for Cc1ccc(C2=NN(c3nc4ccccc4c(=O)n3C)C(c3ccco3)C2)cc1 (stereo not given)
Output line: 77.1
